measurement.notes: Aqueous solubility measurement
Format: physicochemical
details: PBS pH 7.4, pH 7.4, aqueous buffer, kinetic from dmso stock
readout.type: solubility at 24 h (µM)

1 = C[C@H](CCCOc1ccc(C#N)cc1)[C@H]1CC[C@H]2[C@@H]3CC[C@@H]4C[C@H](O)CC[C@]4(C)[C@H]3CC[C@]12C
2 = C[C@H](CCCOc1ccc(C#N)cc1)[C@H]1CC[C@H]2[C@@H]3CC=C4C[C@@H](O)CC[C@]4(C)[C@H]3CC[C@]12C
Name the one with the greater solubility at 24 h value, either 1 or 2 as given. Write down the label of the entry you select.
1
(1: 15 µM, 2: 10 µM)

* * *

target.of.assay: GPBAR1 (Homo sapiens)
Sequence (Q8TDU6 1-330): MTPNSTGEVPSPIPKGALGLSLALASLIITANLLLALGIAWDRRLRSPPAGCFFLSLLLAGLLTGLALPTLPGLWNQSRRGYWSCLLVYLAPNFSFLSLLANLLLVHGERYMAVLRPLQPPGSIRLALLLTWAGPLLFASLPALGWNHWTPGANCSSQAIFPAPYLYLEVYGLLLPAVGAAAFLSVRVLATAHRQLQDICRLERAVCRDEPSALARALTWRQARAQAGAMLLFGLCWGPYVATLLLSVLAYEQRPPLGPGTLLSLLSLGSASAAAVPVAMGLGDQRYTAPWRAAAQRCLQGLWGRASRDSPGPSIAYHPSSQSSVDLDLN
measurement.notes: Luciferase reporter assay
readout.type: EC50 (µM)

P = C[C@H](CCCOc1cccc(CO)c1)[C@H]1CC[C@H]2[C@@H]3CC=C4C[C@@H](O)CC[C@]4(C)[C@H]3CC[C@]12C
Q = C[C@H](CCCOc1ccc(C(=O)O)cc1)[C@H]1CC[C@H]2[C@@H]3CC=C4C[C@@H](O)CC[C@]4(C)[C@H]3CC[C@]12C
Please state the entry with greater EC50 among P and Q . Reply with the label of the item you choose.
P
